Where do these numbers come from? They come from the RNAGym collection of RNA variant scans (doi:10.1126/science.aae0568).

B1: tRNA (parent)
chain: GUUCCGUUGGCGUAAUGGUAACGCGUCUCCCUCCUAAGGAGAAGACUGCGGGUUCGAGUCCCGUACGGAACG

# Variants of: B1
# Method: yeast fitness relative to wild type (ratio to wild type); higher = fitter; tRNA-Arg(CCU), competitive growth, 37 C, YPD
Fewer inactive variants are shown than the library holds.
Measured yeast fitness, listed per entry.

Solved entries (count: 3):
sequence_content="GUUCCGUUGGCGUAGUGGUAACGCGUCUACCUCCUAAGGAGAAGACGGCGGGUACGAAUCCCGUACGGAACG [A15G C29A U47G U54A G58A]" parameter_measured="yeast fitness" measured_result="≤ 0.5"
sequence_content="GUUCCGUUGGCGUAAUGGUAACGCGUCUCCCUCCUCAGGAGAAGACUGCGGGUUCGAGUCCCGUACAGAACG [A36C G67A]" parameter_measured="yeast fitness" measured_result=0.607
sequence_content="GUUCCGUUGGCGUAAUGGUAACGCGUCUCCCUCCUAAGGAGAAGACUGUGGGUUCGUCUCCCGUACGGAACG [C49U A57U G58C]" parameter_measured="yeast fitness" measured_result="≤ 0.5"

Query block: For the variant shown here, GUUCCGUUGGCGUAUUGGUAACGCGUUGCCCUUCUAAGGAGAAGACUGCGGGUUCGAGUCCCGUACGGAACG [A15U C27U U28G C33U] , give the reported yeast fitness.
Result block: ≤ 0.5

Query block: For the variant shown here, GUUCCGUUGGCGUAAUGGUAACGCGUCUCCCUCAUAAGGCGAAGACUGCGGGUCCGAGUCCCGUACGGAACG [C34A A40C U54C] , give the reported yeast fitness.
Result block: ≤ 0.5

Query block: For the variant shown here, GUUCCGUUGGCGUGAUGGUAAAGCGUAUUCCUCCUAAGGAGCAGACUGCGGGUUCGAGUCCCCUACGGAACG [A14G C22A C27A C29U A42C G63C] , give the reported yeast fitness.
Result block: ≤ 0.5

Query block: For the variant shown here, GGUCCGUUGGCGUAUUGGUCACGCGACUCGCUCCAAACGAGAAGACUGCGGGUUCGAGUCCCGAACGGAACG [U2G A15U A20C U26A C30G U35A G38C U64A] , give the reported yeast fitness.
Result block: ≤ 0.5

Query block: For the variant shown here, GUUCCGUUGGCGUAAGGGUAACGCGUCUCCCUCCUAACGAGAAGACUGCGGGUUCGAGUCCCGUACGGAACG [U16G G38C] , give the reported yeast fitness.
Result block: 0.653
